experimental-conditions: 288.15 K; 101.33 kPa; Liquid; Sing-around technique in a fixed-path interferometer
± gives the expanded uncertainty stated by the source.
recorded-metric: speed of sound
In your response, the unit should come after the numeric value.

Example entries and their recorded answers appear below.
CCCCCCn1cc[n+](C)c1.F[B-](F)(F)F [1-hexyl-3-methylimidazolium tetrafluoroborate]	1548.8 ± 1.2 m/s
CCCCCCn1cc[n+](C)c1.F[P-](F)(F)(F)(F)F [1-hexyl-3-methylimidazolium hexafluorophosphate]	1449.1 ± 1.2 m/s
CCCCCCn1cc[n+](C)c1.[Br-] [3-hexyl-1-methyl-1H-imidazolium bromide]	1639.8 ± 1.3 m/s

stdin: # query: speed of sound of entry `COCCO`
stdout: 1376.5 ± 0.85 m/s

* * *

experimental-conditions: 293.15 K; 101.33 kPa; Liquid; Vibrating tube method
recorded-metric: mass density (kg/m3)
Expressed in kg/m3, but write only the number.

COCCO [2-methoxyethan-1-ol]	964.809

stdin: # query: mass density of entry CCCCCCn1cc[n+](C)c1.[Br-] [3-hexyl-1-methyl-1H-imidazolium bromide]
stdout: 1227.49

stdin: Next record, please: CCCCCCn1cc[n+](C)c1.F[B-](F)(F)F [1-hexyl-3-methylimidazolium tetrafluoroborate]
stdout: 1151.79

stdin: Next record, please: CCCCCCn1cc[n+](C)c1.F[P-](F)(F)(F)(F)F [1-hexyl-3-methylimidazolium hexafluorophosphate]
stdout: 1298.71

* * *

A collection of compounds and their measured mass density
experimental-conditions: 318.15 K; 101.33 kPa; Liquid; Vibrating tube method
Expressed in kg/m3, but write only the number.

Example entries and their recorded answers appear below.
CCCCCCn1cc[n+](C)c1.F[B-](F)(F)F [1-hexyl-3-methylimidazolium tetrafluoroborate]	1134.43
CCCCCCn1cc[n+](C)c1.F[P-](F)(F)(F)(F)F [1-hexyl-3-methylimidazolium hexafluorophosphate]	1278.72
COCCO [2-methoxyethan-1-ol]	941.609

stdin: # query: mass density of entry CCCCCCn1cc[n+](C)c1.[Br-] [3-hexyl-1-methyl-1H-imidazolium bromide]
stdout: 1209.94

* * *

experimental-conditions: 288.15 K; 101.33 kPa; Liquid; Vibrating tube method
Numbers after ± are expanded uncertainties.
recorded-metric: mass density
In your response, the unit should come after the numeric value.

CCCCCCn1cc[n+](C)c1.[Br-] [3-hexyl-1-methyl-1H-imidazolium bromide]	1231.03 ± 0.42 kg/m3
CCCCCCn1cc[n+](C)c1.F[P-](F)(F)(F)(F)F [1-hexyl-3-methylimidazolium hexafluorophosphate]	1302.74 ± 0.49 kg/m3
COCCO [2-methoxyethan-1-ol]	969.374 ± 0.091 kg/m3

Now, please, on to the next compound.
stdin: # query: mass density of entry CCCCCCn1cc[n+](C)c1.F[B-](F)(F)F [1-hexyl-3-methylimidazolium tetrafluoroborate]
stdout: 1155.32 ± 0.36 kg/m3

* * *

experimental-conditions: 308.15 K; 101.33 kPa; Liquid; Sing-around technique in a fixed-path interferometer
± gives the expanded uncertainty stated by the source.
recorded-metric: speed of sound

Example entries and their recorded answers appear below.
CCCCCCn1cc[n+](C)c1.[Br-] [3-hexyl-1-methyl-1H-imidazolium bromide]	1551.2 ± 1.3 m/s
CCCCCCn1cc[n+](C)c1.F[P-](F)(F)(F)(F)F [1-hexyl-3-methylimidazolium hexafluorophosphate]	1394.9 ± 1.2 m/s
COCCO [2-methoxyethan-1-ol]	1307.1 ± 0.83 m/s

Now, please, on to the next compound.
stdin: # query: speed of sound of entry CCCCCCn1cc[n+](C)c1.F[B-](F)(F)F [1-hexyl-3-methylimidazolium tetrafluoroborate]
stdout: 1497 ± 1.2 m/s
